- Target Or System: POU1 (OCT1 POU domain);BOB1 (OBF1, OCA-B) (human;human, UniProt P14859;Q16633 260-458;1-256, |)
- Sequence (P14859 260-458, chain 1 of 2): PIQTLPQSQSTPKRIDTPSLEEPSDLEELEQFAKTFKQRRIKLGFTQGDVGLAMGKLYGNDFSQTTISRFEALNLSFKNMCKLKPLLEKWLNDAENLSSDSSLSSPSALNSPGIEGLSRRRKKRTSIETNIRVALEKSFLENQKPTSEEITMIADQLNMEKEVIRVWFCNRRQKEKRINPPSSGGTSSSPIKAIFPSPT
- Sequence (Q16633 whole entry, chain 2 of 2, the tested form may be a part): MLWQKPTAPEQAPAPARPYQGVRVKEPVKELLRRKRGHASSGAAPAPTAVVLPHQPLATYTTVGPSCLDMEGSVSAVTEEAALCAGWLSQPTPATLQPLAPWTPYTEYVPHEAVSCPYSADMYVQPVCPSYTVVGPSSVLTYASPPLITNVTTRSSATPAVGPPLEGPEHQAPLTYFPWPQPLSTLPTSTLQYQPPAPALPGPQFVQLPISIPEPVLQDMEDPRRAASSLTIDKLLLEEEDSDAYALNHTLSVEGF
- Protocol: EMSA-SELEX-seq; with BOB1 (ternary complex band); 20 mM Tris-HCl pH 7.6, 140 mM NaCl, 10% glycerol, 0.5 mM EDTA, 0.05% Triton X-100, 0.1 mg/mL BSA, 0.1 mg/mL poly(dI-dC), 5 mM DTT, room temperature, 20 min; high values mean tight binding
- Study Conditions: protein: recombinant;recombinant; copies: 1;1; dsDNA, one strand shown
Items are presented alongside their recorded binding signal.

Entry Sequence | binding signal
ATATGAAA | 0.226 % of ANNNNAAN 8-mers
ACGTCAAT | 0.0269 % of ANNNNAAN 8-mers
AGACCAAA | 0.0246 % of ANNNNAAN 8-mers
ATCATAAA | 0.0425 % of ANNNNAAN 8-mers
AGTGTAAG | 0.0406 % of ANNNNAAN 8-mers
AGTATAAC | 0.0226 % of ANNNNAAN 8-mers
AAAGAAAG | 0.08 % of ANNNNAAN 8-mers
ACCATAAC | 0.014 % of ANNNNAAN 8-mers
ATCCGAAC | 0.0238 % of ANNNNAAN 8-mers
AAAACAAA | 0.262 % of ANNNNAAN 8-mers
AGTTAAAT | 0.217 % of ANNNNAAN 8-mers
AATTCAAC | 0.0589 % of ANNNNAAN 8-mers
ATGGAAAC | 0.11 % of ANNNNAAN 8-mers
AACCAAAG | 0.0539 % of ANNNNAAN 8-mers
AAGTCAAA | 0.258 % of ANNNNAAN 8-mers
ATACTAAG | 0.0441 % of ANNNNAAN 8-mers
AGAATAAT | 0.0948 % of ANNNNAAN 8-mers
ATCGTAAA | 0.0531 % of ANNNNAAN 8-mers
ACTGCAAA | 0.0535 % of ANNNNAAN 8-mers
AAGGTAAA | 0.144 % of ANNNNAAN 8-mers
ACGTAAAT | 0.232 % of ANNNNAAN 8-mers
AGGCCAAT | 0.0316 % of ANNNNAAN 8-mers
ACTACAAG | 0.0183 % of ANNNNAAN 8-mers
ACCTCAAC | 0.0129 % of ANNNNAAN 8-mers
AAAGTAAT | 0.11 % of ANNNNAAN 8-mers
AAAACAAG | 0.087 % of ANNNNAAN 8-mers
AGCGGAAA | 0.0324 % of ANNNNAAN 8-mers
AGGGGAAT | 0.089 % of ANNNNAAN 8-mers
ACTCCAAT | 0.0242 % of ANNNNAAN 8-mers

----------
- Target Or System: POU1 (OCT1 POU domain);BOB1 (OBF1, OCA-B) (human;human, UniProt P14859;Q16633 260-458;1-256, |)
- Protocol: EMSA-SELEX-seq; with BOB1 (ternary complex band); 20 mM Tris-HCl pH 7.6, 140 mM NaCl, 10% glycerol, 0.5 mM EDTA, 0.05% Triton X-100, 0.1 mg/mL BSA, 0.1 mg/mL poly(dI-dC), 5 mM DTT, room temperature, 20 min; high values mean tight binding
- Study Conditions: protein: recombinant;recombinant; copies: 1;1; dsDNA, one strand shown

Entry Sequence | binding signal
AGACAAAT | 0.187 % of ANNNNAAN 8-mers
AAGTGAAT | 0.0796 % of ANNNNAAN 8-mers
AGGGGAAA | 0.109 % of ANNNNAAN 8-mers
AGGTAAAT | 0.55 % of ANNNNAAN 8-mers
ATTAGAAT | 0.133 % of ANNNNAAN 8-mers
ACACTAAA | 0.0273 % of ANNNNAAN 8-mers
AGATGAAG | 0.0316 % of ANNNNAAN 8-mers
AATACAAT | 0.0663 % of ANNNNAAN 8-mers
ATCAGAAT | 0.0777 % of ANNNNAAN 8-mers
ATCAAAAA | 0.0851 % of ANNNNAAN 8-mers
ACTACAAA | 0.0285 % of ANNNNAAN 8-mers
AACCCAAT | 0.0273 % of ANNNNAAN 8-mers
AAAAAAAA | 0.174 % of ANNNNAAN 8-mers
AGTCCAAC | 0.0144 % of ANNNNAAN 8-mers
ATACTAAT | 0.0745 % of ANNNNAAN 8-mers
ACATAAAC | 0.0652 % of ANNNNAAN 8-mers
AAATTAAT | 0.244 % of ANNNNAAN 8-mers
AATGCAAG | 0.0749 % of ANNNNAAN 8-mers
ACAGCAAG | 0.0164 % of ANNNNAAN 8-mers
ATGTTAAT | 0.208 % of ANNNNAAN 8-mers
AAGCAAAT | 0.906 % of ANNNNAAN 8-mers
ACCGGAAA | 0.0265 % of ANNNNAAN 8-mers
ACATGAAC | 0.0304 % of ANNNNAAN 8-mers
AGAGTAAT | 0.0499 % of ANNNNAAN 8-mers
AACACAAA | 0.0648 % of ANNNNAAN 8-mers
ACACGAAA | 0.0386 % of ANNNNAAN 8-mers
AAAGGAAG | 0.0675 % of ANNNNAAN 8-mers
AGGAGAAT | 0.0624 % of ANNNNAAN 8-mers
AGGAAAAA | 0.18 % of ANNNNAAN 8-mers
ATGCCAAA | 0.0464 % of ANNNNAAN 8-mers
AGTCGAAA | 0.0324 % of ANNNNAAN 8-mers
AACGTAAT | 0.0546 % of ANNNNAAN 8-mers
AATCGAAC | 0.0347 % of ANNNNAAN 8-mers
ATTTTAAT | 0.258 % of ANNNNAAN 8-mers
AACGCAAA | 0.266 % of ANNNNAAN 8-mers
ATTACAAC | 0.0258 % of ANNNNAAN 8-mers
ATCTGAAC | 0.0258 % of ANNNNAAN 8-mers
AGGCGAAA | 0.0386 % of ANNNNAAN 8-mers
ACTCTAAG | 0.0258 % of ANNNNAAN 8-mers
AAGATAAC | 0.0285 % of ANNNNAAN 8-mers
ATCTGAAT | 0.102 % of ANNNNAAN 8-mers
ACTTCAAC | 0.0121 % of ANNNNAAN 8-mers
ACCCAAAC | 0.0164 % of ANNNNAAN 8-mers
AGGGCAAA | 0.0675 % of ANNNNAAN 8-mers
AACCCAAC | 0.0113 % of ANNNNAAN 8-mers
AACATAAG | 0.041 % of ANNNNAAN 8-mers
AATTAAAG | 0.112 % of ANNNNAAN 8-mers
AGCAGAAG | 0.0308 % of ANNNNAAN 8-mers
AAAGCAAG | 0.0457 % of ANNNNAAN 8-mers
AAGTAAAA | 0.132 % of ANNNNAAN 8-mers
ATTATAAG | 0.0843 % of ANNNNAAN 8-mers
ATTATAAA | 0.0691 % of ANNNNAAN 8-mers
AGGTTAAA | 0.0578 % of ANNNNAAN 8-mers
ACCAAAAT | 0.055 % of ANNNNAAN 8-mers
AAGACAAC | 0.0195 % of ANNNNAAN 8-mers
ATTCTAAA | 0.0542 % of ANNNNAAN 8-mers
ATAGGAAG | 0.0585 % of ANNNNAAN 8-mers
AAAAAAAT | 0.152 % of ANNNNAAN 8-mers
ACTCTAAA | 0.0285 % of ANNNNAAN 8-mers
AGGAAAAT | 0.507 % of ANNNNAAN 8-mers
AACCGAAT | 0.0324 % of ANNNNAAN 8-mers
AGTAAAAT | 0.236 % of ANNNNAAN 8-mers
AAAATAAA | 0.148 % of ANNNNAAN 8-mers
AGGGAAAC | 0.0991 % of ANNNNAAN 8-mers
AGAAGAAA | 0.055 % of ANNNNAAN 8-mers
AGTATAAT | 0.0866 % of ANNNNAAN 8-mers
AGGTGAAA | 0.0601 % of ANNNNAAN 8-mers
ACTATAAT | 0.0472 % of ANNNNAAN 8-mers
AGGGCAAT | 0.0457 % of ANNNNAAN 8-mers
ATGACAAC | 0.0277 % of ANNNNAAN 8-mers
ATCCTAAC | 0.023 % of ANNNNAAN 8-mers
ATGAAAAC | 0.0956 % of ANNNNAAN 8-mers
ACAGGAAT | 0.0476 % of ANNNNAAN 8-mers
AGCCGAAT | 0.0281 % of ANNNNAAN 8-mers
ATTAGAAA | 0.0738 % of ANNNNAAN 8-mers
ACATGAAA | 0.0823 % of ANNNNAAN 8-mers
ACTGCAAT | 0.0367 % of ANNNNAAN 8-mers
AGCGGAAC | 0.0129 % of ANNNNAAN 8-mers
ATCTCAAG | 0.039 % of ANNNNAAN 8-mers
ATAACAAA | 0.1 % of ANNNNAAN 8-mers
AATCAAAT | 0.419 % of ANNNNAAN 8-mers
AACTGAAC | 0.0168 % of ANNNNAAN 8-mers
AGGGTAAT | 0.12 % of ANNNNAAN 8-mers
ATAATAAC | 0.0496 % of ANNNNAAN 8-mers
AGGTGAAG | 0.0339 % of ANNNNAAN 8-mers
ACCCTAAT | 0.0273 % of ANNNNAAN 8-mers
ACATTAAC | 0.0402 % of ANNNNAAN 8-mers
ACGCCAAT | 0.0195 % of ANNNNAAN 8-mers
ACTATAAC | 0.023 % of ANNNNAAN 8-mers
ACCACAAA | 0.014 % of ANNNNAAN 8-mers
AGCACAAG | 0.0183 % of ANNNNAAN 8-mers
